Test: Selectivity index, ratio of CC50 for cytotoxicity against human HepG2 cells to MIC for antimycobacterial activity against drug susceptible Mycobacterium tuberculosis H37Rv
Assay type: toxicity, cell-based
Details: read-out: Selectivity Index
Listed here are molecules together with their documented selectivity ratio.

Exercise: Requested read-out: selectivity ratio. Entry: C/C(=N\NC(=O)c1ccncc1)C(=O)Nc1ccc(C(F)(F)F)cc1
Key: > 1670

***
Exercise: Requested read-out: selectivity ratio. Entry: C/C(=N\NC(=O)c1ccncc1)C(=O)Nc1ccc(OC(F)(F)F)cc1
Key: > 1670

Exercise: Requested read-out: selectivity ratio. Entry: C/C(=N\NC(=O)c1ccncc1)C(=O)Nc1ccc(I)cc1
Key: > 200

Exercise: Requested read-out: selectivity ratio. Entry: C/C(=N\NC(=O)c1ccncc1)C(=O)Nc1cc(Cl)cc(Cl)c1
Key: > 200

Exercise: Requested read-out: selectivity ratio. Entry: C/C(=N\NC(=O)c1ccncc1)C(=O)Nc1ccc(Cl)cc1
Key: > 200

Exercise: Requested read-out: selectivity ratio. Entry: C/C(=N\NC(=O)c1ccncc1)C(=O)O
Key: > 50

Source: ChEMBL document CHEMBL4831492
